test: Plasma pharmacokinetics (LC-MS/MS); type: in vivo, human; settings: human, plasma, oral, 12 mg, cycle 1, day 1; 12 mg; read-out: t½ (converted)
observable: half-life (h)
Give bare numbers, in h.

Query: Specify half-life for CC(C)n1nc(-c2ccc3oc(N)nc3c2)c2c(N)ncnc21 [Sapanisertib] and stop.
Result: 7.4

* * *

experiment: Plasma pharmacokinetics (LC-MS/MS); format: in vivo, human; settings: human, plasma, oral, 20 mg, cycle 1, day 1; 20 mg; read-out: t½ (converted)
observable: half-life
A complete answer gives the number followed by the unit.

Query: Identify the reported half-life for the following entry. CC(C)n1nc(-c2ccc3oc(N)nc3c2)c2c(N)ncnc21
Result: 6.5 h
